Experiment: The drug is tested on Coprococcus comes strain: ATCC27758 for biotransformation. The drug concentrations were measured before and after a 12-h incubation by liquid-chromatography-coupled mass spectrometry (LC–MS)
Type: ADME
Parameters: dose 2 uM, timepoint 0 vs 12 hours
Conditions: 2 µM
reported-property: Bacterial Biotransformation

>>> result_value("CCOC(=O)[C@H](CCc1ccccc1)N[C@@H](C)C(=O)N1Cc2ccccc2C[C@H]1C(=O)O")
"Compound NOT metabolized"
>>> result_value("OCCN1CCN(CCCN2c3ccccc3Sc3ccc(C(F)(F)F)cc32)CC1")
"Compound metabolized"
>>> result_value("Cc1nc2n(c(=O)c1CCN1CCC(c3noc4cc(F)ccc34)CC1)CCCC2O (centres undefined)")
"Compound metabolized"
>>> result_value("CC1OC(OC2C(O)CC(OC3C(O)CC(OC4CCC5(C)C(CCC6C5CCC5(C)C(C7=CC(=O)OC7)CCC65O)C4)OC3C)OC2C)CC(O)C1O (centres undefined)")
"Compound NOT metabolized"

Reference for the values: ChEMBL document CHEMBL5303573
